TESTED ON: T1, human CD20 (human, UniProt P11836 1-297)
T1 sequence (looked up): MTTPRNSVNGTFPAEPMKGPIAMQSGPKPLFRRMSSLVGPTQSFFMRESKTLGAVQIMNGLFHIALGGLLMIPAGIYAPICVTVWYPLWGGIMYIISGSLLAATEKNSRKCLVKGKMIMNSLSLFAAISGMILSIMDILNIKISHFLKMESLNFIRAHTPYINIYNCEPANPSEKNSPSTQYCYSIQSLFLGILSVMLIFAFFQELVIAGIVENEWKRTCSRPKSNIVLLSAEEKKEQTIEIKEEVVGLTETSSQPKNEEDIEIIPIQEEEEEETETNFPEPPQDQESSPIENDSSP
PROTOCOL: cell-based or functional assay
Measured LogEC50, complement dependent cytotoxicity (CDC) on Raji cells values are reported for all entries that follow.
I'd appreciate a reply containing only the number, no unit.

BINDER	ENDPOINT VALUE
1F5RHA x 1F5RKB11 (antibody, human IgG1, kappa, V domains shown, also called RHA x RKB11; Variant D) VH: QVQLVQSGAEVKKPGASVKVSCKASGYTFTSYNMHWVRQAPGQRLEWIGAIYPGNGDTSYNQKFKGRVTVTRDTSANTAYMELSSLKSEDTAVYYCARSHYGSNYVDYFDYWGQGTLVTVSS VL: EIVLTQSPSSLSASVGDRVTITCRASSSLSFMHWYQQKPGKAPKPWIYATSNLASGVPSRFSGSGSGTDYTLTISSLQPEDFATYFCHQWSSNPLTFGGGTKVEIKR	-1.06
rituximab (antibody, V domains shown) VH: QVQLQQPGAELVKPGASVKMSCKASGYTFTSYNMHWVKQTPGRGLEWIGAIYPGNGDTSYNQKFKGKATLTADKSSSTAYMQLSSLTSEDSAVYYCARSTYYGGDWYFNVWGAGTTVTVSA VL: QIVLSQSPAILSASPGEKVTMTCRASSSVSYIHWFQQKPGSSPKPWIYATSNLASGVPVRFSGSGSGTSYSLTISRVEAEDAATYYCQQWTSNPPTFGGGTKLEIK	-1.73

In the following, a different binder is considered.
INPUT: Please give the measured LogEC50, complement dependent cytotoxicity (CDC) on Raji cells for this binder: 1F5RHA x 1F5RKG11 (antibody, human IgG1, kappa, V domains shown, also called RHA x RKG11; 1F5RKG11 x 1F5RHA) VH: QVQLVQSGAEVKKPGASVKVSCKASGYTFTSYNMHWVRQAPGQRLEWIGAIYPGNGDTSYNQKFKGRVTVTRDTSANTAYMELSSLKSEDTAVYYCARSHYGSNYVDYFDYWGQGTLVTVSS VL: EIVLTQSPSSLSASVGDRVTITCRASSSLSFMHWYQQKPGKAPKPLIYATSNLASGVPSRFSGSGSGTDFTLTISSLQPEDFATYYCHQWSSNPLTFGGGTKVEIKR
OUTPUT: -0.773
